test target: T1, HCV Core1-169 (HCV-1, UniProt P26664 1-169)
T1 construct: also called Solid Phase HCV Core
T1 sequence: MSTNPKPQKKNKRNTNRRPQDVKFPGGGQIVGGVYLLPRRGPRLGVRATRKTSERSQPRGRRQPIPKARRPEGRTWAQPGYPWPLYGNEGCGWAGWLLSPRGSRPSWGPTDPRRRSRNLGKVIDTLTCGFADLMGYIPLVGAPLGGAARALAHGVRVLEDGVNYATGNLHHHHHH
measurement protocol: sandwich EIA, capture 208A-293
Kindly state OD492 for each of the entries shown.
One number for each entry, in OD.

>>> assay_value("HCV 208B-612 (antibody, V domains shown) VH: EVQLQQSGPELVKPGASVKMSCKASGYRFTSYVMHWVRQKPGQGLEWIGYIDPHNDDTKYSEKFRGKATLTSDKSSTTAYMELSSLTSEDSAVYYCVRYSYDRDYSPMDYWGQGTSVTVSS VL: QIVLTQSPTLMSASPGEKVTMTCSASSTVTYIYWYQQKPGSSPRLWMYDTFNLVSGVPARFSGSRSGTSYFLTISSMEGEDAATYYCQQYSDSPYTFGGGTKLEIKR")
0.28

Your task in this section: give OD492 for each listed record.
1. HCV 208A-741 (antibody, V domains shown) VH: QLQQSGPVLVKPGASVMISCKTSGYTFTENAMHWVKQSHGKSLEWIGGVNPNNGDTIFNQKFKGKATLTVDKSSSTAFMELRSLTSEESTVYYCVRRELDFFDYWGQGTSVTVSS VL: DIVLTQSPASLAVSLGQRTTISCGASQSVSTSRFSYMHWYQQKPGQPPKLLIKYASNLESGVPARFSGSGSGTDFTLNIHPVAEEDTAAYYCQHSWEFPFTFGSGTKLEIKR
2. HCV 208A-207 (antibody, V domains shown) VH: QGQLQQPGAEFVKPGASLKLSCRASGYTFTSYWIHWVKQRPGQGLEWIGEIDPSDSYINQNQKFRGKATLTVDKSSSTAYMELSGLTSEDSAVYYCARHYYGVLDSWGQGTTLTVSS VL: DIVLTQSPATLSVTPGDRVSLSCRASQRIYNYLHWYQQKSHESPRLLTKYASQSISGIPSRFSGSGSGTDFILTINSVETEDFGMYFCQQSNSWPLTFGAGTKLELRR

**Result**
0.42
0.42

The measurements presented in this section are drawn from patent US9371374.
